assay: equilibrium solubility of crystalline Cur in excipient solutions; format: physicochemical; conditions: aqueous TW80 solution (1 mg/mL), pH 7, aqueous with cosolvent or surfactant or cyclodextrin, thermodynamic from solid, TW80 1 mg/mL in water, 37 °C, read-out: equilibrium solubility (Cur con.)
property-name: solubility thermodynamic at 24 h (µg/mL)

| compound | experimental-result |
| --- | --- |
| COc1cc(/C=C/C(=O)CC(=O)/C=C/c2ccc(O)c(OC)c2)ccc1O [Crystalline Cur, Curcumin] | 9.1 |

====

test: in vivo pharmacokinetic study in rats; parameters: species or system Sprague-Dawley (SD) rats; settings: male, Sprague-Dawley, rat, plasma, iv, 40 mg/kg, i.v., 40 mg/kg, 4 h, Rat1-Rat5, read-out: plasma concentration of Cur, individual animals

| molecule | measure-unit | concentration at 4 h |
| --- | --- | --- |
| COc1cc(/C=C/C(=O)CC(=O)/C=C/c2ccc(O)c(OC)c2)ccc1O [Solution Cur, Curcumin] | ng/mL | 25.9 |

====

assay: in vivo pharmacokinetic study in rats; parameters: species or system Sprague-Dawley (SD) rats; settings: male, Sprague-Dawley, rat, plasma, iv, 40 mg/kg, i.v., 40 mg/kg, 2 h, Rat1-Rat5, read-out: plasma concentration of Cur, individual animals

| molecule | concentration at 2 h / ng/mL |
| --- | --- |
| COc1cc(/C=C/C(=O)CC(=O)/C=C/c2ccc(O)c(OC)c2)ccc1O [Solution Cur, Curcumin] | 50.6 |

====

test: in vivo pharmacokinetic study in rats; design: species or system Sprague-Dawley (SD) rats; settings: male, Sprague-Dawley, rat, plasma, po, 40 mg/kg, oral (o.p.), 40 mg/kg, 0.12 h, Rat1-Rat5, read-out: plasma concentration of Cur, individual animals
property-name: concentration at 0.12 h

| structure | experimental-result |
| --- | --- |
| COc1cc(/C=C/C(=O)CC(=O)/C=C/c2ccc(O)c(OC)c2)ccc1O | 2.6 ng/mL |

====

assay: in vivo pharmacokinetic study in rats; design: species or system Sprague-Dawley (SD) rats; details: male, Sprague-Dawley, rat, plasma, iv, 40 mg/kg, i.v., 40 mg/kg, 0.33 h, Rat1-Rat5, read-out: plasma concentration of Cur, individual animals
property-name: concentration at 0.33 h (ng/mL)

| compound | experimental-result |
| --- | --- |
| COc1cc(/C=C/C(=O)CC(=O)/C=C/c2ccc(O)c(OC)c2)ccc1O [Solution Cur, Curcumin] | 181 |

====

test: in vivo pharmacokinetic study in rats; parameters: species or system Sprague-Dawley (SD) rats; details: male, Sprague-Dawley, rat, plasma, po, 40 mg/kg, oral (o.p.), 40 mg/kg, 0.17 h, Rat1-Rat5, read-out: plasma concentration of Cur, individual animals

| structure | measure-unit | concentration at 0.17 h |
| --- | --- | --- |
| COc1cc(/C=C/C(=O)CC(=O)/C=C/c2ccc(O)c(OC)c2)ccc1O | ng/mL | 2.8 |

====

test: equilibrium solubility of crystalline Cur in excipient solutions; assay type: physicochemical; details: aqueous SLS solution (1 mg/mL), pH 7, SLS 1 mg/mL in water, 37 °C, read-out: equilibrium solubility (Cur con.)

| structure | solubility thermodynamic at 24 h |
| --- | --- |
| COc1cc(/C=C/C(=O)CC(=O)/C=C/c2ccc(O)c(OC)c2)ccc1O | < 0.1 µg/mL |

====

assay: in vivo pharmacokinetic study in rats; set-up: species or system Sprague-Dawley (SD) rats; conditions: male, Sprague-Dawley, plasma; rat, oral (o.p.), 40 mg/kg Cur-equivalent
property-name: Tmax (min)

| structure | property-name | experimental-result |
| --- | --- | --- |
| COc1cc(/C=C/C(=O)CC(=O)/C=C/c2ccc(O)c(OC)c2)ccc1O | Tmax | 12 |

====

assay: equilibrium solubility of crystalline Cur in excipient solutions; format: physicochemical; settings: pure water, pH 7.0, 37 °C, filtered 0.22 μm, read-out: equilibrium solubility (Cur con.)

| structure | solubility thermodynamic at 24 h |
| --- | --- |
| COc1cc(/C=C/C(=O)CC(=O)/C=C/c2ccc(O)c(OC)c2)ccc1O | < 0.1 µg/mL |

====

assay: in vivo pharmacokinetic study in rats; parameters: species or system Sprague-Dawley (SD) rats; settings: male, Sprague-Dawley, rat, plasma, iv, 40 mg/kg, i.v., 40 mg/kg, 0.17 h, Rat1-Rat5, read-out: plasma concentration of Cur, individual animals
property-name: concentration at 0.17 h (ng/mL)

| compound | measure-unit | experimental-result |
| --- | --- | --- |
| COc1cc(/C=C/C(=O)CC(=O)/C=C/c2ccc(O)c(OC)c2)ccc1O [Solution Cur, Curcumin] | ng/mL | 220 |

====

assay: in vivo pharmacokinetic study in rats; parameters: species or system Sprague-Dawley (SD) rats; conditions: male, Sprague-Dawley, plasma; rat, oral (o.p.), 40 mg/kg Cur-equivalent
property-name: Cmax (ng/mL)

| structure | measure-unit | experimental-result |
| --- | --- | --- |
| COc1cc(/C=C/C(=O)CC(=O)/C=C/c2ccc(O)c(OC)c2)ccc1O | ng/mL | 2.4 |

====

assay: in vivo pharmacokinetic study in rats; parameters: species or system Sprague-Dawley (SD) rats; details: male, Sprague-Dawley, rat, plasma, iv, 40 mg/kg, i.v., 40 mg/kg, 1 h, Rat1-Rat5, read-out: plasma concentration of Cur, individual animals
property-name: concentration at 1 h (µg/mL)

| structure | measure-unit | experimental-result |
| --- | --- | --- |
| COc1cc(/C=C/C(=O)CC(=O)/C=C/c2ccc(O)c(OC)c2)ccc1O | µg/mL | 0.0852 |
